- TARGET_OF_ASSAY: EGFR (Homo sapiens)
- Construct: Kinases are expressed as either kinase domains or full length constructs; made in house
- Sequence (P00533 25-1210, species assumed): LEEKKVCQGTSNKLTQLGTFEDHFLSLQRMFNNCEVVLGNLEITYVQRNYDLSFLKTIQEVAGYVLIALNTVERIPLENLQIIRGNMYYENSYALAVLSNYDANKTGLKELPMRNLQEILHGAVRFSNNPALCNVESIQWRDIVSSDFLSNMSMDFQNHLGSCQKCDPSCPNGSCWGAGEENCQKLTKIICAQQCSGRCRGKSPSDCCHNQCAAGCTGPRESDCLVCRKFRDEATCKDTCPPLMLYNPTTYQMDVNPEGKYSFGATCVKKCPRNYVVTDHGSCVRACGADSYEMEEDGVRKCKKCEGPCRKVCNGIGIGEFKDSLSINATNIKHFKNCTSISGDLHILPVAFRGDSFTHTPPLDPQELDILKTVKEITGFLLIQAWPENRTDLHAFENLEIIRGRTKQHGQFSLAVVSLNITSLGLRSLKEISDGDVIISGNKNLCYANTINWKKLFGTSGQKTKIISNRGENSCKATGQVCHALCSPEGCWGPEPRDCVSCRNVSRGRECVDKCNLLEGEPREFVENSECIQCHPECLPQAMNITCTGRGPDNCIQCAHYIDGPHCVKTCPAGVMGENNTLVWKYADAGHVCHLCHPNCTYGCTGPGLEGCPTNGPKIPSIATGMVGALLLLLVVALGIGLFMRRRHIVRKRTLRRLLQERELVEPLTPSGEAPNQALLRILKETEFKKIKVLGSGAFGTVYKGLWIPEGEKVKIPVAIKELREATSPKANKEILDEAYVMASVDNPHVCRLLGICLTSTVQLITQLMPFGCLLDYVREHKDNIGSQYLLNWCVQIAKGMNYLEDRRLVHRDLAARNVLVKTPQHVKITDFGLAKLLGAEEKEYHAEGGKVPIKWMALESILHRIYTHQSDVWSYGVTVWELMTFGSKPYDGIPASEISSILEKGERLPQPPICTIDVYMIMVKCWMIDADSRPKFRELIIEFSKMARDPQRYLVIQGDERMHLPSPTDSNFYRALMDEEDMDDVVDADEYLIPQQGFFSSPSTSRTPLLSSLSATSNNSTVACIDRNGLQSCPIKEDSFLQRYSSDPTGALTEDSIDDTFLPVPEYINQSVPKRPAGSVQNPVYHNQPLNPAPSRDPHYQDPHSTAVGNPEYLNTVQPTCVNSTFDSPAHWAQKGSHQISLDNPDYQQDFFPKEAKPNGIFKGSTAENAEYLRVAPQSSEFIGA
- ASSAY: Kinase inhibition assay (33P transfer), EGFR
- Assay type: biochemical
- PARTICULARS: Table 2, class symbols A-E; read-out: EGFR-1
pIC50: −log10 of the molar value.
Listed below: pIC50 values for each entry.

These recorded examples may help you get a feel for the data.
>  <CHEMICAL_STRING>
Brc1cccc(Nc2ncnc(Nc3cccc(Cn4ccnn4)c3)n2)c1

>  <TARGET_OF_ASSAY>
EGFR (Homo sapiens)

>  <QUANTITY_NAME>
pIC50

>  <ASSAY_VALUE>
> 6.02

$$$$
>  <CHEMICAL_STRING>
COc1ccc2[nH]cc(CCNc3ncnc(Nc4ccc(OC)c(OC)c4)n3)c2c1

>  <TARGET_OF_ASSAY>
EGFR (Homo sapiens)

>  <QUANTITY_NAME>
pIC50

>  <ASSAY_VALUE>
< 4.97

$$$$
>  <CHEMICAL_STRING>
COc1ccc(Nc2ncnc(N(C)c3ccccc3Cl)n2)cc1OC

>  <TARGET_OF_ASSAY>
EGFR (Homo sapiens)

>  <QUANTITY_NAME>
pIC50

>  <ASSAY_VALUE>
> 5.97

$$$$
>  <CHEMICAL_STRING>
c1ccc(Cn2ncc3cc(Nc4ncnc(NCCN5CCCC5)n4)ccc32)cc1

>  <TARGET_OF_ASSAY>
EGFR (Homo sapiens)

>  <QUANTITY_NAME>
pIC50

>  <ASSAY_VALUE>
< 4.96

$$$$
>  <CHEMICAL_STRING>
CN(c1cccc(Cl)c1)c1ncnc(Nc2cc(Cl)c(Cl)c(Cl)c2)n1

>  <TARGET_OF_ASSAY>
EGFR (Homo sapiens)

>  <QUANTITY_NAME>
pIC50

>  <ASSAY_VALUE>
< 4.96

$$$$
>  <CHEMICAL_STRING>
COc1cc(Nc2ncnc(-c3cccnc3Nc3ccc(C(F)(F)F)cc3)n2)cc(OC)c1OC

>  <TARGET_OF_ASSAY>
EGFR (Homo sapiens)

>  <QUANTITY_NAME>
pIC50

>  <ASSAY_VALUE>
< 5.04

$$$$
>  <CHEMICAL_STRING>
COC(=O)c1ccc(-c2cc(Nc3ncnc(Nc4cccc(CCC(=O)O)c4)n3)[nH]n2)cc1

>  <TARGET_OF_ASSAY>
EGFR (Homo sapiens)

>  <QUANTITY_NAME>
pIC50

>  <ASSAY_VALUE>
5.28 to 6.06

$$$$
>  <CHEMICAL_STRING>
Cc1ccc2c(c1)CCCN2c1ncnc(Nc2cccc(Cc3nnn[nH]3)c2)n1

>  <TARGET_OF_ASSAY>
EGFR (Homo sapiens)

>  <QUANTITY_NAME>
pIC50

>  <ASSAY_VALUE>
> 6.00

$$$$
>  <CHEMICAL_STRING>
COC(=O)c1ccc(-c2cc(Nc3ncnc(NCCc4c[nH]c5ccccc45)n3)[nH]n2)cc1

>  <TARGET_OF_ASSAY>
EGFR (Homo sapiens)

>  <QUANTITY_NAME>
pIC50

>  <ASSAY_VALUE>
5.28 to 6.06

$$$$
>  <CHEMICAL_STRING>
COc1ccc(Nc2ncnc(Nc3ccc4c(c3)C(=O)OC4)n2)cc1OC

>  <TARGET_OF_ASSAY>
EGFR (Homo sapiens)

>  <QUANTITY_NAME>
pIC50

>  <ASSAY_VALUE>
5.04 to 5.20

$$$$

CNS(=O)(=O)Cc1ccc(Nc2ncnc(Nc3cc(-c4ccc(C(=O)OC)cc4)n[nH]3)n2)cc1 yielded pIC50 of 5.15 to 5.31

# pIC50 (compound: COc1ccc(Nc2ncnc(Nc3cccc(C#N)c3)n2)cc1OC ) is > 5.94

Lookup result for COc1cc(Nc2ncnc(N(CCO)c3ccccc3)n2)cc(OC)c1OC ; measured pIC50: > 6.00
